Experiment: Aqueous solubility in PBS by shake-flask method
Type: physicochemical
Details: 25 °C, pH 7.4, aqueous buffer, thermodynamic from solid, PBS pH 7.4, 25 °C, read-out: PBS Solubility (log S) (converted)
observationType: solubility at 72 h (µM)
// units = µM; emit number, no label

Input line: Give the measured solubility at 72 h for N#CCN1C(=O)S/C(=C\c2cccc([N+](=O)[O-])c2)C1=O [Compound 14c]
Output line: 15.8

* * *

Collected CC50 at 72 h values appear next to each entry.
Test: In vitro cytotoxicity on the human monocyte THP-1 cell line (MTT, 72 h)
Format: cell-based
Conditions: human; THP-1, 72 h, MTT

- compound: "COc1cccc2c1C(=O)c1c(O)c3c(c(O)c1C2=O)C[C@@](O)(C(=O)CO)C[C@@H]3O[C@H]1C[C@H](N)[C@H](O)[C@H](C)O1 [Doxorubicin, reference compound]"
  CC50 at 72 h: "2.2 µM"
- compound: "C[C@@H]1[C@H](O)[C@@H](C)/C=C/C=C/C=C/C=C/C=C/C=C/C=C/[C@H](O[C@@H]2O[C@H](C)[C@@H](O)[C@H](N)[C@@H]2O)C[C@@H]2O[C@](O)(C[C@@H](O)C[C@@H](O)[C@H](O)CC[C@@H](O)C[C@@H](O)CC(=O)O[C@H]1C)C[C@H](O)[C@H]2C(=O)O [Amphotericin B, reference compound]"
  CC50 at 72 h: "17.6 µM"
- compound: "N#CCN1C(=O)S/C(=C\\c2cccc([N+](=O)[O-])c2)C1=O [Compound 14c]"
  CC50 at 72 h: "121 µM"

Input line: Give the measured CC50 at 72 h for Cn1c([N+](=O)[O-])cnc1COc1ccc(S(C)(=O)=O)cc1 [Fexinidazole sulfone, reference compound]
Output line: > 200 µM

Input line: Give the measured CC50 at 72 h for CCCCCCCCCCCCCCCCOP(=O)([O-])OCC[N+](C)(C)C [Miltefosine, reference compound]
Output line: 30 µM

* * *

Collected log10(EC50) values appear next to each entry.
System: Leishmania infantum promastigotes
Test: In vitro antileishmanial activity on L. infantum promastigotes (MTT, 72 h)
Format: cell-based
Details: Leishmania infantum, L. infantum promastigotes, MTT, read-out: Anti-L. infantum Promastigote Activity EC50
Values are log10 of EC50 in µM.

- compound: "O=C(CN1C(=O)S/C(=C\\c2ccccc2[N+](=O)[O-])C1=O)Nc1ccccc1Cl [Compound 28b]"
  tgt: "Leishmania infantum promastigotes"
  reportedResult: 1.21
- compound: "C[C@@H]1[C@H](O)[C@@H](C)/C=C/C=C/C=C/C=C/C=C/C=C/C=C/[C@H](O[C@@H]2O[C@H](C)[C@@H](O)[C@H](N)[C@@H]2O)C[C@@H]2O[C@](O)(C[C@@H](O)C[C@@H](O)[C@H](O)CC[C@@H](O)C[C@@H](O)CC(=O)O[C@H]1C)C[C@H](O)[C@H]2C(=O)O [Amphotericin B, reference compound]"
  tgt: "Leishmania infantum promastigotes"
  reportedResult: -1.22
- compound: "O=C(CN1C(=O)S/C(=C\\c2cccc([N+](=O)[O-])c2)C1=O)c1ccccc1 [Compound 16c]"
  tgt: "Leishmania infantum promastigotes"
  reportedResult: 0.51

Then there is this compound:
Input line: Give the measured log10(EC50) for CCOC(=O)CN1C(=O)S/C(=C\c2ccccc2[N+](=O)[O-])C1=O [Compound 12b]
Output line: 1.38

* * *

Experiment: In vitro cytotoxicity on the human hepatic HepG2 cell line (MTT, 72 h)
Conditions: human, HepG2 cells (hepatocarcinoma cell line, ATCC HB-8065), HepG2 Cytotoxicity CC50, HepG2, 72 h, MTT
Collected CC50 at 72 h values appear next to each entry.
// units = µM; emit number, no label

- molecule: "Cc1ccc(NC(=O)CN2C(=O)S/C(=C\\c3ccccc3[N+](=O)[O-])C2=O)cc1 [Compound 24b]"
  CC50 at 72 h, µM: 30.9

Then there is this molecule:
Input line: Give the measured CC50 at 72 h for COc1cc(/C=C2\SC(=O)N(CC(=O)Nc3ccc(Cl)cc3)C2=O)cc(OC)c1OC [Compound 27e]
Output line: 19.4

* * *

Collected melting point values appear next to each entry.

Answered cases to consult:
- compound: "N#CCN1C(=O)S/C(=C\\c2ccccc2[N+](=O)[O-])C1=O [Compound 14b]"
  melting point: "119 to 120 °C"
- compound: "NC(=O)CN1C(=O)S/C(=C\\c2cccc([N+](=O)[O-])c2)C1=O [Compound 15c]"
  melting point: "256 to 258 °C"

Input line: Give the measured melting point for O=C(CN1C(=O)S/C(=C\c2ccccc2)C1=O)Nc1ccc([N+](=O)[O-])cc1 [Compound 26a]
Output line: 270 to 272 °C

Input line: Give the measured melting point for O=C(CN1C(=O)S/C(=C\c2ccccc2)C1=O)Nc1ccccc1 [Compound 23a]
Output line: 259 to 260 °C

Input line: Give the measured melting point for COc1ccc(NC(=O)CN2C(=O)S/C(=C\c3cc(OC)c(OC)c(OC)c3)C2=O)cc1 [Compound 25e]
Output line: 215 to 216 °C

Input line: Give the measured melting point for CC(=O)CN1C(=O)S/C(=C\c2cccc([N+](=O)[O-])c2)C1=O [Compound 13c]
Output line: 188 to 190 °C

Input line: Give the measured melting point for NC(=O)CN1C(=O)S/C(=C\c2ccccc2)C1=O [Compound 15a]
Output line: 229 to 231 °C

Input line: Give the measured melting point for COc1cc(/C=C2\SC(=O)N(CC(=O)Nc3ccc(Cl)cc3)C2=O)cc(OC)c1OC [Compound 27e]
Output line: 218 to 219 °C

* * *

Assay: Aqueous solubility in PBS by shake-flask method
Type: physicochemical
Conditions: 25 °C, pH 7.4, aqueous buffer, thermodynamic from solid, PBS pH 7.4, 25 °C, read-out: PBS solubility
observationType: solubility at 72 h (µM)
// units = µM; emit number, no label

Input line: Give the measured solubility at 72 h for N#CCN1C(=O)S/C(=C\c2cccc([N+](=O)[O-])c2)C1=O [Compound 14c]
Output line: 16

* * *

observationType: melting point

- molecule: "O=C(CN1C(=O)S/C(=C\\c2ccccc2[N+](=O)[O-])C1=O)Nc1ccccc1Cl [Compound 28b]"
  melting point: "174 to 175 °C"
- molecule: "CC(=O)CN1C(=O)S/C(=C\\c2ccccc2[N+](=O)[O-])C1=O [Compound 13b]"
  melting point: "146 to 148 °C"
- molecule: "O=C(O)CN1C(=O)S/C(=C\\c2cccc([N+](=O)[O-])c2)C1=O"
  melting point: "191 to 193 °C"
- molecule: "COc1cc(/C=C2\\SC(=O)NC2=O)cc(OC)c1OC"
  melting point: "185 to 187 °C"

Then there is this molecule:
Input line: Give the measured melting point for CCOC(=O)CN1C(=O)S/C(=C\c2ccc([N+](=O)[O-])cc2)C1=O [Compound 12d]
Output line: 136 to 138 °C

* * *

Test system: wild-type L. donovani (LdBOB) promastigotes
Assay: Antileishmanial activity against wild-type L. donovani promastigotes
Format: cell-based
Details: Leishmania donovani, read-out: EC50 Values, WT
observationType: pEC50
The quantity pEC50 is defined as the negative base-10 logarithm of the molar concentration.

- compound: "CC1CS(=O)(=O)CCN1/N=C/c1ccc([N+](=O)[O-])o1 (stereo not drawn)"
  reportedResult: 5.51
- compound: "C[C@]1(COc2ccc(N3CCC(Oc4ccc(OC(F)(F)F)cc4)CC3)cc2)Cn2cc([N+](=O)[O-])nc2O1"
  reportedResult: 8.52

Input line: Give the measured pEC50 for N#CCN1C(=O)S/C(=C\c2cccc([N+](=O)[O-])c2)C1=O [Compound 14c]
Output line: 4.66

* * *

Collected melting point values appear next to each entry.

Answered cases to consult:
- molecule: "N#CCN1C(=O)S/C(=C\\c2ccccc2)C1=O [Compound 14a]"
  observationType: "melting point"
  reportedResult: "230 to 232 °C"
- molecule: "O=C(CN1C(=O)S/C(=C\\c2ccccc2[N+](=O)[O-])C1=O)Nc1ccccc1 [Compound 23b]"
  observationType: "melting point"
  reportedResult: "186 to 188 °C"
- molecule: "NC(=O)CN1C(=O)S/C(=C\\c2ccc([N+](=O)[O-])cc2)C1=O [Compound 15d]"
  observationType: "melting point"
  reportedResult: "281 to 283 °C"
- molecule: "COc1cc(/C=C2\\SC(=O)N(CC(=O)c3ccccc3)C2=O)cc(OC)c1OC [Compound 16e]"
  observationType: "melting point"
  reportedResult: "187 to 189 °C"

Then there is this molecule:
Input line: Give the measured melting point for O=C(CN1C(=O)S/C(=C\c2ccccc2)C1=O)Nc1ccccc1Cl [Compound 28a]
Output line: 243 to 245 °C
